Kindly state pest or weed control at 140 g/ha for each of the entries shown.
# Tested on: Key Broadleaf Weed and Crop Species
# test_summary: Post-emergent Test II herbicidal activity (Table 5)
# Assay type: in vivo
# condition_description: post-emergence, 336 h; EPHHL: wild poinsettia (Euphorbia heterophylla); 140 g ai/ha; post-emergent; 14 days after application; read-out: Visual Growth Reduction (%) 14 Days After Application EPHHL
# Excerpt: Post-emergent Test II: Seeds or nutlets of the desired test plant species were planted in Sun Gro Metro-Mix® 360 planting mixture, which typically has a pH of 6.0 to 6.8 and an organic matter content of about 30 percent, in plastic pots with a surface area of 64 square centimeters. When required to ensure good germination and healthy plants, a fungicide treatment and/or other chemical or physical treatment was applied. […]

INSERT INTO measurements (smiles, test_system, meas_value) VALUES
  ('COc1c(N)nc(-c2ccc(I)c(F)c2)nc1C(=O)O', 'Key Broadleaf Weed and Crop Species', '95 to 100%'),
  ('COc1c(N)nc(-c2cc(F)c(I)cc2F)nc1C(=O)O', 'Key Broadleaf Weed and Crop Species', '95 to 100%'),
  ('COC(=O)c1nc(-c2ccc(Br)cc2)c(C)c(N)c1Cl', 'Key Broadleaf Weed and Crop Species', '75 to 84%');

Hi, could you look up pest or weed control at 140 g/ha for each item in my list?
1. Nc1cc(-c2ccc(OC(F)F)cc2)nc(C(=O)O)c1Cl
2. COC(=O)c1nc(-c2ccc(I)c(F)c2)cc(N)c1Cl
3. C=Cc1c(N)nc(-c2ccc(C#N)cc2F)nc1C(=O)OC
4. COc1c(N)nc(-c2ccc(C#N)cc2)nc1C(=O)O

1. 95 to 100%
2. 95 to 100%
3. 0 to 29%
4. 0 to 29%

====

Answer each item with its documented pest or weed control at 70 g/ha.
# Tested on: test plant species in Direct Seeded Rice
# test_summary: Postemergence herbicidal activity in direct seeded rice (Table 13)
# Format: in vivo
# condition_description: post-emergence, 504 h; ECHSS: barnyardgrass (Echinochloa crus-galli), junglerice (Echinochloa colonum); 70 g ai/ha; read-out: Visual Growth Reduction (%) 21 Days After Application ECHSS

Use the examples below as a reference point.
INSERT INTO measurements (compound, meas_value) VALUES
  ('COC(=O)c1nc(-c2ccc(C#N)c(F)c2)c(F)c(N)c1Cl [Compound 135]', '75 to 84%'),
  ('COc1c(N)nc(-c2ccc(Br)c(F)c2F)nc1C(=O)O [Compound 8]', '95 to 100%'),
  ('COC(=O)c1nc(-c2ccc(Br)c(F)c2F)nc(N)c1OC [Compound 122]', '85 to 94%'),
  ('COC(=O)c1nc(-c2ccc(Cl)c(F)c2)c(F)c(N)c1Cl [Compound 216]', '95 to 100%');

Form field: reported pest or weed control at 70 g/ha of Nc1c(F)c(-c2ccc(Cl)c(F)c2)nc(C(=O)O)c1Cl [Compound 217] 95 to 100%

====

Provide the reported pest or weed control at 35 g/ha of each item.
# System: HORSS: barley, including spring and winter (Hordeum vulgare)
# test_summary: Post-emergent Test III, herbicidal activity in wheat and barley
# Format: in vivo
# condition_description: Hordeum vulgare, post-emergence, 504 h; Table 9; 35 g ai/ha; post-emergent; 21 d; read-out: Visual Growth Reduction (%) 21 Days After Application HORSS

// solved cases for pest or weed control at 35 g/ha follow
INSERT INTO measurements (smiles, test_system, measured_endpoint, meas_value) VALUES
  ('C#Cc1ccc(-c2nc(C(=O)O)c(C=C)c(N)c2F)cc1', 'HORSS: barley, including spring and winter (Hordeum vulgare)', 'pest or weed control at 35 g/ha', '30 to 44%'),
  ('C#Cc1ccc(-c2nc(N)c(OC)c(C(=O)O)n2)c(F)c1F', 'HORSS: barley, including spring and winter (Hordeum vulgare)', 'pest or weed control at 35 g/ha', '0 to 29%'),
  ('Nc1cc(-c2ccc(Br)cc2F)nc(C(=O)O)c1Cl', 'HORSS: barley, including spring and winter (Hordeum vulgare)', 'pest or weed control at 35 g/ha', '85 to 94%');

Kindly give each listed record's pest or weed control at 35 g/ha.
1. Nc1c(F)c(-c2cc(F)c(Br)cc2F)nc(C(=O)O)c1Cl
2. Nc1cc(-c2ccc(Br)cc2)nc(C(=O)O)c1Cl
3. COC(=O)c1nc(-c2ccc(I)cc2F)cc(N)c1Cl

85 to 94%
85 to 94%
85 to 94%
